// provenance: PubChem BioAssay AID1963429

- System: 126254-015-R-J1-PDC complex spheroid growth, % test/control;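 also: spheroids exposed to compound for seven days; 100% = DMSO vehicle control wells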
- experimentalDetails: Anticancer human tumor 126254-015-R-J1-PDC patient-derived soft tissue sarcoma cell line growth inhibition [Asc]
- experimentalConditions: second compound 0.3 µM; first compound 0.1 µM; hits give low values
// viability, T/C lookup, one value per entry

molecule	unitsSymbol	viability, T/C
O=C(c1ccc(F)c(F)c1Nc1ccc(I)cc1F)N1CC(O)([C@@H]2CCCCN2)C1 + CCN1C(C(=O)NC23CCC(C(=O)O)(CC2)CC3)C(c2cccc(Cl)c2F)C2(C(=O)Nc3cc(Cl)ccc32)C12CCCCC2	%	82.9
CCN1CCN(Cc2ccc(Nc3ncc(F)c(-c4cc(F)c5nc(C)n(C(C)C)c5c4)n3)nc2)CC1 + CCN1C(C(=O)NC23CCC(C(=O)O)(CC2)CC3)C(c2cccc(Cl)c2F)C2(C(=O)Nc3cc(Cl)ccc32)C12CCCCC2	%	89.8
Cn1ncnc1[C@H]1c2n[nH]c(=O)c3cc(F)cc(c23)N[C@@H]1c1ccc(F)cc1 + CCN1C(C(=O)NC23CCC(C(=O)O)(CC2)CC3)C(c2cccc(Cl)c2F)C2(C(=O)Nc3cc(Cl)ccc32)C12CCCCC2	%	75.2
C#Cc1c(F)ccc2cc(O)cc(-c3ncc4c(N5CC6CCC(C5)N6)nc(OCC56CCCN5CC(F)C6)nc4c3F)c12 (stereo unspecified) + CCN1C(C(=O)NC23CCC(C(=O)O)(CC2)CC3)C(c2cccc(Cl)c2F)C2(C(=O)Nc3cc(Cl)ccc32)C12CCCCC2	%	104
C=CC(=O)N1CCN(c2nc(=O)n(-c3c(C)ccnc3C(C)C)c3nc(-c4c(O)cccc4F)c(F)cc23)C(C)C1 (stereo unspecified) + CCN1C(C(=O)NC23CCC(C(=O)O)(CC2)CC3)C(c2cccc(Cl)c2F)C2(C(=O)Nc3cc(Cl)ccc32)C12CCCCC2	%	121
NC1CCC(NC2CC2c2ccccc2)CC1 (stereo unspecified) + CCN1C(C(=O)NC23CCC(C(=O)O)(CC2)CC3)C(c2cccc(Cl)c2F)C2(C(=O)Nc3cc(Cl)ccc32)C12CCCCC2	%	88.4
